- target-under-test: UniProt Q96T53
- Sequence (Q96T53 whole entry): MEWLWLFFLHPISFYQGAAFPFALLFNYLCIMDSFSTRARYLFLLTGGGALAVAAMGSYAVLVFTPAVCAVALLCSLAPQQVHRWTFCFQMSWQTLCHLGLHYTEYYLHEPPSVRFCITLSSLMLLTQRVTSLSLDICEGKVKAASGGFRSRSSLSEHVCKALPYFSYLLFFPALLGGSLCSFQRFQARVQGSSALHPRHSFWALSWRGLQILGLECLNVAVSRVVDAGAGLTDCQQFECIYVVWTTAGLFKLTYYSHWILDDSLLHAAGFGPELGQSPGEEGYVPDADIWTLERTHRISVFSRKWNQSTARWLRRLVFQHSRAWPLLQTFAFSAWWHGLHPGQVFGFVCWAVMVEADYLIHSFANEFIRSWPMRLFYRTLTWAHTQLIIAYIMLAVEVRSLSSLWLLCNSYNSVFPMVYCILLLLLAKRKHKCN
- assay-info: GOAT TR-FRET (HTRF) inhibition assay, 384-well
- Type: biochemical
- recorded-conditions: His-tag human GOAT membrane preparation from sf9 cells; read-out: hGOAT IC50
pIC50: −log10 of the molar value.
measurement-label: pIC50

O=C(O)Cc1csc2cc(O[C@@H]3CCc4ncccc43)cc(Cl)c12	> 5.30
O=C(O)Cc1csc2cc(O[C@@H]3COc4ncccc43)cc(Cl)c12	> 7.30
Cc1ccc2c(n1)CC[C@@H]2Oc1cc(Cl)c2c(CC(=O)O)csc2c1	> 7.30

Please look at the following molecule next.
Q. May I ask what pIC50 has been recorded for `O=C(O)Cc1csc2c(F)c(O[C@@H]3COc4nc(C(F)(F)F)ccc43)cc(Cl)c12` ?
A. > 7.30
